- TARGET: Aurora kinase A (Homo sapiens) (UniProt O14965);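 also: values are mean percent inhibition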
- Sequence (O14965 whole entry): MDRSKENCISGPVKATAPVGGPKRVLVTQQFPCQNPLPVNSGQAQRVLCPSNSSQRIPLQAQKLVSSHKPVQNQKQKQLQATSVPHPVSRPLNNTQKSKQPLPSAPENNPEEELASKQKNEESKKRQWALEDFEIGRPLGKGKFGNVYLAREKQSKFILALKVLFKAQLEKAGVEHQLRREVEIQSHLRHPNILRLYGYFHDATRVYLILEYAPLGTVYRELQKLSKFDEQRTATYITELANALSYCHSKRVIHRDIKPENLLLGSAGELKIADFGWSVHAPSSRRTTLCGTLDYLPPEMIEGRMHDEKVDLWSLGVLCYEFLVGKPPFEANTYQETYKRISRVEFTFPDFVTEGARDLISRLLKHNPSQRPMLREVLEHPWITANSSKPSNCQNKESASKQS
- SETTINGS: at 1 µM
Classify as follows. Reported inhibition greater than or equal to 60%: true. Reported inhibition below: false.

Some entries whose results are on file:
CCN1CCC(CC(=O)Nc2n[nH]c3nnc(-c4cccc(F)c4F)cc23)CC1 :: false
Cc1ccc(O)cc1Nc1ccnc2cc(-c3ccccn3)ccc12 :: false

Please tell me: is the compound `CCn1c(-c2nonc2N)nc2cnc(Oc3cccc(NC(=O)c4ccc(N(C)C)cc4)c3)cc21` at or over 60% in terms of inhibition?
true

Please tell me: is the compound `Cc1cccc2c1NC(=O)/C2=N\Nc1ccc(S(N)(=O)=O)cc1` at or over 60% in terms of inhibition?
false

---

Recorded measurements of inhibition, one per entry
- TARGET: Activated CDC42 kinase 1 (Homo sapiens);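 also: values are mean inhibition of TNK2, from the GSK PKIS screening dataset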
- SETTINGS: at 0.1 µM
// units = %; emit number, no label

Solved entries:
CCCN(CCS(C)(=O)=O)Cc1ccc(-c2ccc3ncnc(Nc4ccc(OCc5cccc(F)c5)c(Cl)c4)c3c2)o1 :: 0.32
CC1=C(C(=O)Nc2cc(Cl)c3[nH]ncc3c2)C(c2ccc(C(F)(F)F)cc2)CC(=O)N1 (centres undefined) :: 0.65
COc1cc(N2CCN(C(C)C)CC2)ccc1Nc1nc(Nc2ccc(F)cc2C(N)=O)c2cc[nH]c2n1 :: 10.8

Need inhibition, item `COc1cc2c(cc1Nc1nc(Nc3ccsc3C(N)=O)c3cc[nH]c3n1)N(C(=O)CN(C)C)CCC2(C)C`
6.79

Need inhibition, item `COc1ccc(-c2oc3ncnc(N)c3c2-c2ccc(NC(=O)Nc3cc(C(F)(F)F)ccc3F)cc2)cc1`
4.09

Need inhibition, item `CCc1nn2ncccc2c1-c1ccnc(NC2CC2)n1`
1.22

Need inhibition, item `COc1ccc2c(-c3ccnc(Nc4cccc(OC(F)(F)F)c4)n3)cnn2n1`
1.32

Need inhibition, item `COc1cc2ncn(-c3cc(OCc4ccccc4C(F)(F)F)c(C(=O)N(C)C)s3)c2cc1OC`
0.68

Need inhibition, item `CNC(=O)c1cncc(/C=C/c2ccccc2Cl)c1`
0.2

---

Recorded measurements of inhibition, one per entry
- TARGET: RAC-alpha serine/threonine-protein kinase (Homo sapiens) (UniProt P31749);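 also: reported values are mean inhibition figures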
- Sequence (P31749 whole entry): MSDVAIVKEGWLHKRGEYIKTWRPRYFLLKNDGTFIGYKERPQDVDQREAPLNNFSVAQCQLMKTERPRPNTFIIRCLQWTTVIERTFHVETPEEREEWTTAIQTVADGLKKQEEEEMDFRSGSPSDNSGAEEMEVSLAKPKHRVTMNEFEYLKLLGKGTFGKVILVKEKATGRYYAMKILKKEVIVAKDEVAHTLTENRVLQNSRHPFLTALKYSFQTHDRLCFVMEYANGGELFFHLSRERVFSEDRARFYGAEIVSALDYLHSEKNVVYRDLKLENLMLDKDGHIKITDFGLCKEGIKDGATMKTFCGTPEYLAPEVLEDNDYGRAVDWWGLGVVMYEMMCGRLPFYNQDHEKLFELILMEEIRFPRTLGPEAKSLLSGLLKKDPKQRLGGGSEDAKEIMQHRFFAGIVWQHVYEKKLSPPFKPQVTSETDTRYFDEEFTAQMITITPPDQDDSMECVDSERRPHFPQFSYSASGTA
- SETTINGS: at 0.1 µM
// units = %; emit number, no label

Need inhibition, item `Fc1ccc(-c2nn3ccccc3c2-c2ccncc2)cc1`
0.06

Need inhibition, item `CCn1c(-c2nonc2N)nc2ccccc21`
1.46

Need inhibition, item `CN1CCC(n2cnc(-c3ccc(F)cc3)c2-c2ccnc(Nc3ccccc3)n2)CC1`
0.23

Need inhibition, item `CN1CCC(n2cnc(-c3ccc(F)cc3)c2-c2ccnc(N)n2)CC1`
0.24

Need inhibition, item `c1ccc(-c2nc3n(c2-c2ccc4c(c2)OCO4)CCC3)nc1`
0.15

Need inhibition, item `CCn1c(-c2nonc2N)nc2cnc(Oc3cccc(NC(=O)c4ccc(N(C)C)cc4)c3)cc21`
0.51

Need inhibition, item `O=C(Nc1n[nH]c2cc(-c3ccc(F)cc3)ccc12)C1CC1`
0.61

Need inhibition, item `CNC(=O)c1cccc(C#Cc2cncnc2Nc2ccc(OCc3cccc(F)c3)c(Cl)c2)c1`
0.17

Need inhibition, item `Nc1nc(-c2cccc(Cl)c2)c(-c2ccc3ncccc3n2)s1`
-0.22

Need inhibition, item `Fc1ccc(-c2cc(-c3c[nH]nc3-c3ccccn3)ccn2)cc1`
0.11

Need inhibition, item `CNC(=O)c1cncc(/C=C/c2ccccc2Cl)c1`
0.07

Need inhibition, item `COc1cc2c(cc1Nc1nc(Nc3ccsc3C(N)=O)c3cc[nH]c3n1)N(C(=O)CN(C)C)CCC2(C)C`
1.26
